Field: minimum inhibiting concentrations (MIC). Provide a value for each of the compounds that follow.
Tested on: H. influenzae PRC 44
Measurement notes: Antimicrobial activities, MIC
Type: cell-based
Test settings: Sensitivity Disk agar-N+5% Horse blood, inoculants 10^6 CFU/ml
Answer with a number only, understood to be in µg/mL.

Quick check: minimum inhibiting concentrations (MIC) of CSc1c2sc(C3=C(C(=O)[O-])N4C(=O)[C@H]([C@@H](C)O)[C@H]4[C@H]3C)cn2c[n+]1CC(N)=O ?
0.20

Entry CSc1c2sc(C3=C(C(=O)[O-])N4C(=O)[C@H]([C@@H](C)O)[C@H]4[C@H]3C)cn2c[n+]1CCCN.Cl please
0.78

And for CSc1c2sc(C3=C(C(=O)[O-])N4C(=O)[C@H]([C@@H](C)O)[C@H]4[C@H]3C)cn2c[n+]1C[C@H](O)CN.Cl ?
0.78

Lookup CSc1c2sc(C3=C(C(=O)[O-])N4C(=O)[C@H]([C@@H](C)O)[C@H]4[C@H]3C)cn2c[n+]1C
0.20

Please give the result for C[C@@H](O)[C@H]1C(=O)N2C(C(=O)[O-])=C(c3cn4c[n+](C)cc4s3)[C@H](C)[C@H]12 [Compound B, reference compound] too.
0.39
